Recorded IC50 values for a group of compounds are listed next.
target: UniProt A0A287B941; test: Inhibition of PDE10 from pig striatum ([3H]-cAMP SPA); type: biochemical; settings: Table 8; read-out: PDE10 pig IC50

# count of solved cases: 3
molecule	IC50
COc1ccc2nc(C)c3c(C)nc(-c4ccc(C(F)(F)F)cc4)n3c2n1	0.01 to 0.1 µM
COc1ccc2nc(C)c3c(C)nc(-c4ccc(C)cc4)n3c2n1	0.01 to 0.1 µM
COc1ccc2nc(C)c3c(C)nc(-c4ccc(F)cc4OC)n3c2n1	0.01 to 0.1 µM

Which IC50 value belongs to `COc1ccc2nc(C)c3c(C)nc(-c4cc(Cl)ccc4OC)n3c2n1` ?
0.01 to 0.1 µM

Entry under review: `COc1ccc2nc(C)c3c(C)nc(-c4ccc(F)cc4C)n3c2n1` . Reported IC50?
< 0.01 µM

Fill blank: measured IC50 of the compound `COc1ccc2nc(C)c3c(C)nc(-c4ccc(Cl)cc4C)n3c2n1` is ____.
< 0.01 µM

Data provenance: patent US20090143361A1
